# System: Saccharomyces cerevisiae;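 also: PSI is a weighted mean of sequencing reads over stability bins, variants kept only with over 10 reads, mCherry proximal and sfGFP distal, peptide attached via GGGS linker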
# experiment: protein stability index of tFT-peptide fusion (C-terminal peptide) (PSI (0-1 scale)); higher = more stable (slower turnover)
# setupConditions: genetic background: wild type; temperature: 30 C
Would you mind labelling by protein stability index? At or over 0.3 is TRUE, under is FALSE.

{"seqText": "FVSVAGFIVVVV", "assayedTarget": "Saccharomyces cerevisiae", "cat": "FALSE"}
{"seqText": "IFFYPFLIFCFV", "assayedTarget": "Saccharomyces cerevisiae", "cat": "FALSE"}
{"seqText": "GLSWRLVWVVII", "assayedTarget": "Saccharomyces cerevisiae", "cat": "FALSE"}
{"seqText": "YFFFFLHFNFAF", "assayedTarget": "Saccharomyces cerevisiae", "cat": "FALSE"}
{"seqText": "DGGHLVGHDLFY", "assayedTarget": "Saccharomyces cerevisiae", "cat": "TRUE"}
{"seqText": "LLLCVVLVSVFG", "assayedTarget": "Saccharomyces cerevisiae", "cat": "FALSE"}
{"seqText": "VFLVRTVTQISA", "assayedTarget": "Saccharomyces cerevisiae", "cat": "FALSE"}
{"seqText": "FFSQLFLEIVAA", "assayedTarget": "Saccharomyces cerevisiae", "cat": "FALSE"}
{"seqText": "CAGRQGRERGHT", "assayedTarget": "Saccharomyces cerevisiae", "cat": "TRUE"}
{"seqText": "AEIVCLTDGLLF", "assayedTarget": "Saccharomyces cerevisiae", "cat": "TRUE"}
{"seqText": "LNLACCWFVRCR", "assayedTarget": "Saccharomyces cerevisiae", "cat": "FALSE"}
{"seqText": "VTFCFLFVWFLV", "assayedTarget": "Saccharomyces cerevisiae", "cat": "FALSE"}
{"seqText": "YSRFALRPQLLV", "assayedTarget": "Saccharomyces cerevisiae", "cat": "FALSE"}
{"seqText": "GGMVRSCLWCFV", "assayedTarget": "Saccharomyces cerevisiae", "cat": "TRUE"}
{"seqText": "LRGIVSVWILRA", "assayedTarget": "Saccharomyces cerevisiae", "cat": "FALSE"}
{"seqText": "LSAVISLRIQLS", "assayedTarget": "Saccharomyces cerevisiae", "cat": "TRUE"}
{"seqText": "LFPLFTLIFVHL", "assayedTarget": "Saccharomyces cerevisiae", "cat": "FALSE"}
